assay_procedure: chemical genetic growth profiling, strain panel (AID 1159580);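 also: tested at 20 µM; growth read once vehicle control cultures reached saturation at 30 °C; lower values mean less growth of the strain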
run_conditions: S. cerevisiae deletion strains, growth OD, locus YOL006C, strain TOP1, active compounds read low
Among all 5,500 compounds or so, about 2,000 (36%) were called active. Inconclusive results (about 18%) are left out. The list shows a part of the results.
Classify: MET when normalized growth is strictly less than 0.9; NOT MET when normalized growth is not.

Ask: Take the molecule OCC(O)Cc1ccc2c(c1)OCO2 (centres undefined) and say whether its normalized growth is less than 0.9.
Result: NOT MET

Ask: Hello, I'm reviewing records and need to know if normalized growth of `Nc1cc(-c2ccc(Cl)cc2)nc(N)n1` is below 0.9. Could you check?
Result: NOT MET

Ask: # check: normalized growth < 0.9 for `CCCCOc1ccc(OCCCN2CCOCC2)cc1`
Result: MET

Ask: Is normalized growth strictly under 0.9 for the entry CC(SCc1ccccc1)C(=O)O (centres undefined) ?
Result: NOT MET

Ask: Confirm or reject: normalized growth of CC1(C)C2CC[C@]3(C)C(C(=O)C=C4[C@H]5C[C@@](C)(C(=O)O)CC[C@]5(C)CC[C@]43C)[C@@]2(C)CC[C@@H]1O (some centres undefined) lies strictly below 0.9
Result: NOT MET

Ask: Does this molecule meet the criterion normalized growth < 0.9? `CC(C)(C)CC(C)(C)c1ccc(OCCOCC[N+](C)(C)Cc2ccccc2)cc1`
Result: MET

Ask: Just wondering, is normalized growth of CC1(C)C2CC[C@]3(C)C(C(=O)C=C4[C@@H]5C[C@@](C)(C(=O)O)CC[C@]5(C)CC[C@]43C)[C@@]2(C)CC[C@@H]1O (some centres undefined) below 0.9?
Result: NOT MET

Ask: Please determine if `OC(CCN1CCCCC1)(c1ccccc1)c1ccccc1` is below 0.9 in terms of normalized growth.
Result: NOT MET

Ask: Determine if `C=C(C)/C=C1/C=CC(=O)C(C)=C1` shows normalized growth strictly lower than 0.9.
Result: MET

Ask: Say whether its normalized growth is strictly beneath 0.9. Entry: `CC(=O)OCC(CCn1cnc2cnc(N)nc21)COC(C)=O`
Result: NOT MET

Ask: Identify whether the molecule `Oc1ccc(O)cc1` records normalized growth below 0.9.
Result: MET

Ask: normalized growth strictly < 0.9 for this molecule? Cc1ccc(C(=O)C(C)CN2CCCCC2)cc1 (centres undefined)
Result: NOT MET

Ask: Quick check: normalized growth of `O=C(O)c1cc(=O)c2cc(Cl)ccc2[nH]1` under 0.9?
Result: NOT MET

Ask: Report whether reported normalized growth is lower than 0.9 (strictly) for CC(C(=O)O)c1ccc2c(c1)[nH]c1ccc(Cl)cc12 (centres undefined)
Result: NOT MET

Ask: Given `O=C(O)c1cc(=O)c2ccc(Cl)cc2[nH]1` , is recorded normalized growth strictly lower than 0.9?
Result: NOT MET

Ask: Would you kindly verify if normalized growth of C[N+](C)(C)CCOP(=O)([O-])OP(=O)(O)OC[C@H]1OC(n2ccc(N)nc2=O)[C@H](O)[C@@H]1O (some centres undefined) is strictly less than 0.9?
Result: NOT MET

Ask: Report whether reported normalized growth is lower than 0.9 (strictly) for CC(C)CC1C(=O)N2CCC[C@H]2C2(O)O[C@](NC(=O)C3C=C4c5cccc6[nH]c(Br)c(c56)C[C@H]4N(C)C3)(C(C)C)C(=O)N12 (some centres undefined)
Result: NOT MET

Ask: Find out if reported normalized growth for `O=[N+]([O-])O[C@H]1CO[C@H]2[C@@H]1OC[C@H]2O[N+](=O)[O-]` is less than 0.9
Result: NOT MET

Ask: Does the reported normalized growth of the following molecule sit strictly below 0.9? `Cc1cc(C(C)(C)CC(C)(C)C)ccc1OCCOCC[N+](C)(C)Cc1ccccc1`
Result: MET

Ask: Is 0.9 strictly greater than the molecule's reported normalized growth? molecule: `Cc1cc(NC(=O)C(Cl)(Cl)Cl)n(-c2ccccc2)n1`
Result: MET

Ask: Input `COc1ccccc1C1CCN(C(=O)c2ccc(F)cc2)CC1` ; condition: normalized growth strictly below 0.9. Does it hold?
Result: MET

Ask: Below 0.9 on normalized growth? Entry `CCCCCCCCCCCCC[N+](C)(C)Cc1ccccc1`
Result: MET

Ask: Find out if reported normalized growth for `Cn1cc[nH]c1=S` is less than 0.9
Result: NOT MET

Ask: In plain terms, does CC(=O)[C@H]1CCC2C3C[C@H](C)C4=CC(=O)CC[C@]4(C)C3[C@@H](O)C[C@@]21C (some centres undefined) come in under 0.9 for normalized growth?
Result: NOT MET

Ask: I wonder whether `CC(C)(C)NC(=O)N1CCN(c2nc3ccc(Cl)cc3s2)CC1` has normalized growth below 0.9. Can you tell?
Result: MET

Ask: In the record for `COc1ccc(C(=O)c2ccccc2O)c(O)c1` , is normalized growth less than 0.9?
Result: MET

Ask: # check: normalized growth < 0.9 for `O=c1ccc2cc(O)c(O)cc2o1`
Result: NOT MET

Ask: is_below(normalized growth, 0.9) for `N=c1nc(N2CCCCC2)cc(N)n1O` ?
Result: NOT MET

Ask: Hello, I'm reviewing records and need to know if normalized growth of `Cc1c(C(=O)O)cc(-c2ccccc2)n1-c1ccccc1` is below 0.9. Could you check?
Result: MET

Ask: Field: below-cutoff. Rule: recorded normalized growth strictly less than 0.9. Subject: CCc1cccc(C)c1N(C(=O)CCl)C(C)COC (centres undefined)
Result: NOT MET

Ask: Does this molecule meet the criterion normalized growth < 0.9? `CN=C(NC#N)NCCSCc1nc[nH]c1C`
Result: NOT MET

Ask: Would you kindly verify if normalized growth of `CCCCOc1ccc(C(=O)CCC(=O)O)cc1` is strictly less than 0.9?
Result: NOT MET

Ask: Given the entry CCC1(C)CC(=O)NC1=O (centres undefined) , would its reported normalized growth be below 0.9?
Result: NOT MET

Ask: Would you kindly verify if normalized growth of `C/C=C(/C(=C/C)c1ccc(O)cc1)c1ccc(O)cc1` is strictly less than 0.9?
Result: MET

Ask: Answer whether the molecule `CCCCOc1ccc(C(=O)CCN2CCCCC2)cc1` has normalized growth strictly less than 0.9
Result: MET

Ask: normalized growth under 0.9? Item: `COc1ccccc1CC(=O)NC1CCN(Cc2ccccc2)CC1`
Result: NOT MET

Ask: Lab note: normalized growth threshold 0.9. Does this molecule come in strictly under it? `O=C(O)c1ccccc1OP(=O)(O)O`
Result: NOT MET

Ask: I wonder whether `Cc1c(N(C)C)c(=O)n(-c2ccccc2)n1C` has normalized growth below 0.9. Can you tell?
Result: NOT MET

Ask: Input `CC(C)[N+](C)(CCOC(=O)C1c2ccccc2Oc2ccccc21)C(C)C` ; condition: normalized growth strictly below 0.9. Does it hold?
Result: NOT MET

Ask: Item `NC(=O)N1c2ccccc2CC(=O)c2ccccc21` : normalized growth beneath 0.9, strictly?
Result: NOT MET

Ask: Answer whether the molecule `Cc1nn(-c2ccccc2)nc1C(=O)NC(=O)N1CCCC1` has normalized growth strictly less than 0.9
Result: NOT MET

Ask: # check: normalized growth < 0.9 for `NC(N)=Nc1nc(CSCCC(N)=NS(N)(=O)=O)cs1`
Result: NOT MET

Ask: Please determine if CC1(C)C2CC[C@]3(C)C(C(=O)C=C4[C@@H]5C[C@@](C)(C(=O)O)CC[C@]5(C)CC[C@]43C)[C@@]2(C)CC[C@@H]1OC(=O)CCC(=O)O (some centres undefined) is below 0.9 in terms of normalized growth.
Result: NOT MET

Ask: Lab note: normalized growth threshold 0.9. Does this molecule come in strictly under it? `Oc1c(Cl)c(Cl)c(Cl)c(Cl)c1Cl`
Result: MET

Taken from PubChem BioAssay AID1159580.
